- Test name: soluble on expression in E. coli; label from the status in PepcDB or PDB records
Readout kind: soluble on expression in E. coli

Biosequence	Readout kind	Val
MSLKKETLSDRLNKAMELAGMSQGALAKASGVAQPTIWRLTSGNARGSTKIVEIANALGVNSEWLSTGIGPMKKDGTTPINASPSSNTFKIDILDLEVSAGPGVINREFVEILRSVEYSQDDARHMFDGRKAENIRIINVRGDSMSGTIEPGDLLFVDVSIKNFDGDGIYAFLYDDTAHVKRLQKMKDKLLVISDNKSYSAWDPIERDEMNRVFVFGKVIGSMPQTYRKHGEGHHHHHH	soluble on expression in E. coli	soluble
MPSNIRESDASCLEMIRSIIRSTADDNSKWVEIFVDFENAQPTDEEREIYNMAEEVLNDCDLVLADVSSYGNGCYAERNQLKNDSDTQALKVLMTKLEPFVARTCSYYEHVAKIEKIVPIILWELSSGPLPLEEQLANKQSIAKQFARLIGFVLDFDVVKMRTAQITNDYSYYRRAKHIVYQDFEDQGVPELPQVQMFLCEGNPMLKALCNGVDSYMQTHQSLPINNTTDVFVTIINVCRFMLANDECLARLTDSSKHLCCRVMTGLVILFDHVDQNGAFVSNSSIDMRDVVRLIKLNTTPEQSDCLLAGLRFTTKHYNDSSTPKSLRHLIEVK	soluble on expression in E. coli	soluble
TMLSFVTTDANIDHGHLQGALSAITNETFNRITVDGDTSTNDMVVVMASGLAENETLTPEHPDWANFYKALQLACEDLAKQIARDGEGATKLIEVEVTGAANDQEAGMVAKQIVGSDLVKTAIYGADANWGRIICAIGYSGCEVNQETIDIAIGPIVTLKQSEPTGFSEEEATAYLKEADPVKISVNLHIGNGTGKAWGCDLTYDYVRINAGYRT	soluble on expression in E. coli	soluble

====

- Test name: soluble on expression in E. coli; label from the status in PepcDB or PDB records

Biosequence	soluble on expression in E. coli
MSGAVPETPYHQRWLAFPDAVSSYRPLESRLAGTSRATADNRTPCTGRLGTPRVFLMATDDVSKAYSSPTFDAEALLGTVISAEDPDRVLIEPWATGVDGVILDVGSGTGRWTGHLASLGHQIEGLEPATRLVELARQTHPSVTFHHGTITDLSDSPKRWAGLLAWYSLIHMGPGELPDALVALRMAVEDGGGLLMSFFSGPSLEPMYHPVATAYRWPLPELAQALETAGFQVTSSHWDPRFPHAYLTAEASKQNLALEHHHHHH	not soluble
MSQQHDYVIGKNAVIETLKSDRKLYKLWMAENTVKGQAQQVIELAKKQGITIQYVPRKKLDQMVTGQHQGVVAQVAAYEYAELDDLYKAAEEKNEQPFFLILDELEDPHNLGSIMRTADAVGAHGIVIPKRRAVGLTTTVAKASTGAIEHIPVARVTNLARTLEEMKERGIWVVGTDASAREDFRNMDGNMPLALVIGSEGKGMGRLVKEKCDFLIKLPMAGKVTSLNASVAAGLLMYEVYRKRNPVGE	not soluble

====

- Test name: soluble on expression in E. coli; label from the status in PepcDB or PDB records

Biosequence	soluble on expression in E. coli
MGSDKIHHHHHHMKKATLKDIAEYFGVSISTVSRALSGKPGVSSELREKILEKAREIGYTPNLMALGLKKGNTRTVGVLIPELSANFFADIVSSIEKSLFHLGYRLILCSTDDDPVKEREHLQLLLDQKVEGILSAPVNVKENKDIYNSIINHFKIPVVFFDRLVEGVDSDFVISDNREGMEILVNYLVKHGHKKIGLIHPLRGSFTGEERLKGFLLFKDSIEIREEWIRDGRSSEQGGYESFLRIMTSQERPTAIVIGNNLMTLGVLKAAKELNIKIPEDISLVSFDDAYWNEIFDPPITCVRQDPQQIGLIAATILLDRMKNRKKPSPRMQVVLKVKFVERSSVRTIKTLKDFS	not soluble
MSLAARRALHFVFKVGNRFQTARFYRDVLGMKVLRHEEFEEGCKAACNGPYDGKWSKTMVGFGPEDDHFVAELTYNYGVGDYKLGNDFMGITLASSQAVSNARKLEWPLTEVAEGVFETEAPGGYKFYLQNRSLPQSDPVLKVTLAVSDLQKSLNYWCNLLGMKIYEKDEEKQRALLGYADNQCKLELQGVKGGVDHAAAFGRIAFSCPQKELPDLEDLMKRENQKILTPLVSLDTPGKATVQVVILADPDGHEICFVGDEAFREGHHHHHH	soluble
MSLEGINPAVIMKAIMQSESVEQLSQEREKAEKLLKMYIAQDVAIHFISNIFTELNDALIVKAIEFSVADMKREGIDLPDIEFCWLSLGSEGRKEQLLRTDLDNAILFRDPENEASRETVQRVFLELGKRVTAILVACGFKPCPAEIMASNPEWCQPLSGWMNYFRKWIGTPEPKALMNSTIFFDFRPVYGSTALALEMKREINTEIARGRGFLQFFAKNALQNPPPLGFFRNFLVEKSREHAHEFDIKARALMPLSDAARVLACEFGVTDFLGTVERFRRIGQLLPSFQELAEEAAQGYEFLMRLRTEHGLAEKSSGRYIDPKHLNKMQRQKLRDLFTTIGKVQSMLNLRYQLDYIRAEGHHHHHH	soluble
MIRSIFIPPTSITATSRLFYGMRAYSTKLEKASLQKYLHDPVKVTVIPITDKESFIYYKHTDNLFNSQSRILKAEKWIVEKSAKLWRKLKKSPKSYNKKIVSMVQSLLNSTPWSENSLLTIPSESYILKRIKGEKDKTQEIRLTLKDYTVKAEQVDTQPLHVYYPPGISSPDECLRQMKKLYQEGLIYHKKWTLYCLLGLPLTIPLILIPLIPNVPGFYLSYRAYVNIKAYLGAKHLKSLLESSKQNLEFRELLGYTEVYKRGTSSRTQGNQKESKGAPELLLNKKTLPLILDFLEVHELESDLNKVILQESKSQEKNKI	not soluble
MSLQGQIDIPLDIVGRWQADQSAYELAKTYYWAKVAHLAEHNDQLAQPTYEGAHLADISEINNAPATARRMLVVSSDLFRAQQTAHAFADLMGLDVELDPRLRERSFGEWEGMTREEICEHYADDYHSWRAHTGGETKHGVESRIHTGRRGAEAVRDIVAKHHDETMPTTLLLVGHGSWIVATVAVLLDMDPDDLNNVGAMRNAFWTRMTPHTDPRNADRPTWKLEEFNQGPAIASFADWENGPESLRAPGMPLWKPIIQEGHHHHHH	not soluble

====

- Test name: soluble on expression in E. coli; label from the status in PepcDB or PDB records

Biosequence	soluble on expression in E. coli
MIKFMSIASGSSGNCYYLSNGNQALLIDAGIPLRSISKALKDHQLPIEGNVVGVLVTHDHADHIRTIGCLGEKFHLPVFATERVHNGINSSRYMDHLPLLSRRNILQEETFRLAGFDITAFPIPHDATENVGYHITAPGFSFTLCTDVGHITDTISHYASKADYLVMEANYDCEMLLSGPYPEFLKERVSGPNGHLSNQETGDFLARTFHPGMKHVWLCHLSKDNNHPDLCWKSIEYRLFSEGIRVGKDMELTVLKRTSPSSLYTLLEDLEHHHHHH	soluble
VERMYDVTPPGVVMGLAWTAMGGSTLFVETSLRRPQDKDAKGDKDGSLEVTGQLGEVMKESARIAYTFARAFLMQHAPANDYLVTSHIHLHVPEGATPKDGPSAGCTIVTALLSLAMGRPVRQNLAMTGEVSLTGKILPVGGIKEKTIAAKRAGVTCIVLPAENKKDFYDLAAFITEGLEVHFVEHYREIFDIAFPDEQAEALAVER	soluble
MVQHLTAEEIIQYISDAKKSTPIKVYLNGNFEGITYPESFKVFGSEQSKVIFCEADDWKPFYEAYGSQFEDIEIEMDRRNSAIPLKDLTNTNARIEPGAFIREQAIIEDGAVVMMGATINIGAVVGEGTMIDMNATLGGRATTGKNVHVGAGAVLAGVIEPPSASPVIIEDDVLIGANAVILEGVRVGKGAIVAAGAIVTQDVPAGAVVAGTPAKVIKQASEVQDTKKEIVAALRKLND	not soluble
SFARGLKRKCVGHEEDVEGALAGLKTVSSYSLQRQSLLDMSLVKLQLCHMLVEPNLCRSVLIANTVRQIQEEMTQDGTWRTVAPQAAERAPLDRLVSTEILCRAAWGQEGAHPAPGLGDGHTQGPVSDLCPVTSAQAPRHLQSSAWEMDGPRENRGSFHKSLDQIFETLETKNPSCMEELFSDVDSPYYDLDTVLTGMMGGARPGPCEGLEGLAPATPGPSSSCKSDLGELDHVVEILVET	not soluble

====

- Test name: soluble on expression in E. coli; label from the status in PepcDB or PDB records

Biosequence	soluble on expression in E. coli
MEPPLILIVEDEKDIARFIELELQAEGYRTEVAHDGITGLSKFREVSPNLVILDLMLPVMDGIEVAKRIRKTSNVPILILTAKDRVEDKVAGLDAGADDYLVKPFSIEELLARVRAHLRRVTPAITGEIRVADLIINLEGREVFRGNRRIELSNKEFELLELLAKNPGKVFSRYEIEEKVWPGYQGGSNVVDVYIGYLRKKLEAGGERRLIHTVRGVGYVLRED	soluble
MSLGNVGHLITPAIPLDYGELLAAPVTSSESMAQLRGRWIVLSVADGPCAEVCRQNLYKTRQMRLMLNKEIPRVRRLLLLTDPGAADALADWLRQDEFLAVAGLAPTLREKLEKAVGGPLQPGQILLLDPLGNLMMYYDADFDPYGVLKDLKHLLRASQIGEGHHHHHH	soluble
GGSGERKISRIHLVSEPSITHFLQVSWEKTLESGFVITLTDGHSAWTGTVSESEISQEADDMAMEKGKYVGELRKALLSGAGPADVYTFNFSKESCYFFFEKNLKDVSFRLGSFNLEKVENPAEVIRELICYCLDTTAKNEKSIDDLEEKVAHAKEENLNMHQMLDQTLLELNNM	soluble
RSLVSVHNEWDPLEEVIVGTAVGARVPTADRSVFAVEYAGDYESQEQIPSGAYPDRVLKETEEELHVLAAELTKLGVTVRRPGPRDHSALIKTPDWETDGFHDYCPRDGLLSVGQTIIETPMALRSRFLESLAYKDLLLEYFASGSRWLSAPKPRLTDDSYAPQAPAGERLTDEEPVFDAANVLRFGTDLLYLVSDSGNELGAKWLQSAVGDTYTVHPCRKLYASTHVDSTIVPLRPGLVLTNPSRVNDENMPDFLRSWENITCPELVDIGFTGDKPHCSVWIGMNLLVVRPDLAVVDRRQTALIRLLEKHGMNVLPLQLTHSRTLGGGFHCATLDVRRTGALETYQF	soluble
CSCSPVHPQQAFCNADIVIRAKAVNKKEVDSGNDIYGNPIKRIQYEIKQIKMFKGPDQDIEFIYTAPAAAVCGVSLDIGGKKEYLIAGKAEGNGNMHITLCDFIVPWDTLSATQKKSLNHRYQMGCECKITRCPMIPCYISSPDECLWMDWVTEKNINGHQAKFFACIKRSDGSCAWYRGAAPP	soluble
